test: GHS categories as the set defines them, by LD50: 1 up to 5, 2 up to 50, 3 up to 300, 4 up to 2000, 5 above 2000 mg/kg; settings: rat; in vivo; po
parameter.measured: GHS category
Answers are plain numbers.

For every item in the list below, what is its measured GHS category?
1. COc1cc(OC)nc(NC(=O)NS(=O)(=O)c2ncccc2OCC(F)(F)F)n1
2. Cc1cccc2ncc(C(=O)NC34CC5CC(CC(C5)C3)C4)c(=O)n12
3. CC(C)c1[nH]c2ccccc2c1C(=O)c1cccnc1
4. CC[C@H]1OC(=O)C[C@@H](O)[C@H](C)[C@@H](O[C@@H]2O[C@H](C)[C@@H](O[C@H]3C[C@@](C)(O)[C@@H](O)[C@H](C)O3)[C@H](N(C)C)[C@H]2O)[C@@H](CC=O)C[C@@H](C)C(=O)C=CC(C)=CC1CO[C@@H]1O[C@H](C)[C@@H](O)[C@@H](OC)[C@H]1OC (some centres undefined)

5
3
5
5

---

assay: rat acute oral toxicity; conditions: in vivo
parameter.measured: log10 of LD50 (log10 of the value in mg/kg)
All values: log10 LD50 [mg/kg].

# count of solved cases: 5
molecule: CN1CCCC1=O
log10 of LD50: 3.59

molecule: CC(=O)CC(=O)Nc1ccccc1Cl
log10 of LD50: 3.61

molecule: CCOC(=O)C(O)(c1ccc(Cl)cc1)c1ccc(Cl)cc1
log10 of LD50: 2.85

molecule: Cc1cccnc1
log10 of LD50: 2.60

molecule: O=C1CCCCCN1
log10 of LD50: 3.08

For every item in the list below, what is its measured log10 of LD50?
1. CCC[Si](OC)(OC)OC
2. CCCCN=C=O
3. C=COCCCC
4. COP(=S)(OC)Oc1nc(Cl)c(Cl)cc1Cl
5. O=C(O)C1C2CCC(O2)C1C(=O)O (configuration not stated)
6. CC(=O)Oc1ccccc1C(=O)O
7. Cc1ncc2n1-c1ccc(Cl)cc1C(c1ccccc1F)=NC2

1: 3.71; 2: 2.56; 3: 4.00; 4: 3.18; 5: 1.58; 6: 3.11; 7: 2.33

---

experiment: GHS categories as the set defines them, by LD50: 1 up to 5, 2 up to 50, 3 up to 300, 4 up to 2000, 5 above 2000 mg/kg; conditions: rat; in vivo; po
For each record, write down the corresponding GHS category.
Answers are plain numbers.

# count of solved cases: 3
compound: CC(=O)Oc1ccc(C(c2ccc(OS(=O)(=O)O)cc2)c2ccccn2)cc1 (stereo not given)
parameter.measured: GHS category
readout.number: 5

compound: C[Si]1(C)O[Si](C)(c2ccccc2)O[Si](C)(C)O[Si](C)(c2ccccc2)O1 (stereo not given)
parameter.measured: GHS category
readout.number: 5

compound: Cc1c(C#N)sc(N)c1C#N
parameter.measured: GHS category
readout.number: 4

For every item in the list below, what is its measured GHS category?
1. CC(OC(=O)ON1C(=O)CCC1=O)OC(=O)C(C)C (stereo not given)
2. CCCCC(CC)COCC(O)COc1ccc(-c2nc(-c3ccc(C)cc3C)nc(-c3ccc(C)cc3C)n2)c(O)c1 (stereo not given)
3. FC(F)(F)C(F)(F)C(F)(F)C(F)(F)N(C(F)(F)C(F)(F)C(F)(F)C(F)(F)F)C(F)(F)C(F)(F)C(F)(F)C(F)(F)F
4. NC(=O)[C@@H]1C[C@]2(NC(=O)NC2=O)c2cc(F)ccc2O1
5. CCOCCOC(=O)C(=O)Nc1nc(-c2ccccc2)cs1
6. Clc1ccc(CNC2=NCCS2)cc1
7. CC[N+](CC)(CC)C(C)OS(=O)(=O)C(F)(F)C(F)(F)C(F)(F)C(F)(F)F (stereo not given)

1: 4; 2: 5; 3: 5; 4: 5; 5: 5; 6: 3; 7: 5
